System: Aβ production
test description: Cellular Aβ IC50 determination (Aβ40 sandwich ELISA)
Type: cell-based
conditions used: Cricetulus griseus, Chinese hamster ovary cells over-expressing human APP695 with London and Swedish mutations, 24 h
parameter: IC50

>>> result("CSC[C@H](NC(=O)OCc1ccn(C)n1)C(=O)N[C@H](CC(C)C)[C@@H](O)C[C@@H](C)C(=O)N[C@@H](C(=O)NCC(C)C)C(C)C")
"6 to 100 µM"
>>> result("Cc1csc(CCC(=O)N[C@@H](CS(C)(=O)=O)C(=O)N[C@H](CC(C)C)[C@@H](O)C[C@@H](C)C(=O)N[C@@H](C(=O)NCC(C)C)C(C)C)n1")
"> 100 µM"
>>> result("CSC[C@H](NC(=O)OCc1nc(C)sc1C)C(=O)N[C@H](CC(C)C)[C@@H](O)C[C@@H](C)C(=O)N[C@@H](C(=O)NCC(C)C)C(C)C")
"< 6 µM"
>>> result("COCCOCS(=O)(=O)C[C@H](NC(=O)OCc1nc(C)cs1)C(=O)N[C@H](CC(C)C)[C@@H](O)C[C@@H](C)C(=O)N[C@@H](C(=O)NCC(C)C)C(C)C")
"< 6 µM"
>>> result("CSC[C@H](NC(=O)OCc1nc(C)cs1)C(=O)N[C@H](CC(C)C)[C@@H](O)C[C@@H](C)C(=O)N[C@@H](C(=O)NCC(C)C)C(C)C")
"6 to 100 µM"

====

Listed compounds paired with reported pKi
experimental system: Cathepsin D (Homo sapiens, UniProt P07339)
Sequence (P07339 65-412, species assumed): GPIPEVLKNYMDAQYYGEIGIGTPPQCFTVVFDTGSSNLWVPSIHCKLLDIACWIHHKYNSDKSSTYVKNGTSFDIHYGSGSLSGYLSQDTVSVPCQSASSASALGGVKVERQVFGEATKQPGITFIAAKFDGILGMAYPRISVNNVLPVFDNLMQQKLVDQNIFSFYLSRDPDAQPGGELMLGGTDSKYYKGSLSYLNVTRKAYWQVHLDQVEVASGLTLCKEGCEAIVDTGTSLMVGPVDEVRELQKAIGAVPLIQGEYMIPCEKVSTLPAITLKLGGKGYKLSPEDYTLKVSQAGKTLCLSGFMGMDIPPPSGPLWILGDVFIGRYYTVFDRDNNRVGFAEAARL
test description: Inhibition of cathepsin D activity (substrate peptide […], MALDI-TOF)
Assay type: biochemical
conditions used: pH 4.1, 37 degrees C., substrate NH3-[…]-CO2, MALDI-TOF; read-out: Cath D Ki
pKi: −log10 of the molar value.
parameter: pKi

>>> result("COCCOCSC[C@H](NC(=O)OCc1nc(C)cs1)C(=O)N[C@H](CC(C)C)[C@@H](O)C[C@@H](C)C(=O)N[C@@H](C(=O)NCC(C)C)C(C)C")
"> 7.00"
>>> result("C=CCSC[C@H](NC(=O)CCn1nc(C)cc1C)C(=O)N[C@@H](CC(C)C)[C@@H](O)C[C@@H](C)C(=O)N[C@H](C(=O)NCC(C)C)C(C)C")
"> 7.00"
>>> result("CCc1nc(COC(=O)N[C@@H](CS(C)(=O)=O)C(=O)N[C@H](CC(C)C)[C@@H](O)C[C@@H](C)C(=O)N[C@@H](C(=O)NCC(C)C)C(C)C)c(C)s1")
"6.00 to 7.00"
>>> result("Cc1csc(COC(=O)N[C@@H](CS(C)(=O)=O)C(=O)N[C@H](Cc2cc(F)cc(F)c2)[C@@H](O)C[C@@H](C)C(=O)N[C@@H](C(=O)NCC(C)C)C(C)C)n1")
"> 7.00"
>>> result("CSC[C@H](NC(=O)OCc1noc(C)n1)C(=O)N[C@H](CC(C)C)[C@@H](O)C[C@@H](C)C(=O)N[C@@H](C(=O)NCC(C)C)C(C)C")
"> 7.00"

====

experimental system: Cathepsin D (Homo sapiens, UniProt P07339)
test description: Inhibition of cathepsin D activity (substrate peptide […], MALDI-TOF)
Assay type: biochemical
conditions used: pH 4.1, 37 degrees C., substrate NH3-[…]-CO2, MALDI-TOF; read-out: Cath D Ki
parameter: Ki

>>> result("Cc1csc(COC(=O)N[C@@H](CS(=O)(=O)CC(C)C)C(=O)N[C@H](CC(C)C)[C@@H](O)C[C@@H](C)C(=O)N[C@@H](C(=O)NCC(C)C)C(C)C)n1")
"100 to 1000 nM"
>>> result("CSC[C@H](NC(=O)CCc1nc(C)oc1C)C(=O)N[C@H](CC(C)C)[C@@H](O)C[C@@H](C)C(=O)N[C@@H](C(=O)NCC(C)C)C(C)C")
"< 100 nM"
>>> result("C=CCS(=O)(=O)C[C@H](NC(=O)CCn1nc(C)cc1C)C(=O)N[C@H](CC(C)C)[C@@H](O)C[C@@H](C)C(=O)N[C@@H](C(=O)NCC(C)C)C(C)C")
"< 100 nM"

====

experimental system: Cathepsin D (Homo sapiens, UniProt P07339)
test description: Inhibition of cathepsin D activity (substrate peptide […], MALDI-TOF)
Assay type: biochemical
conditions used: pH 4.1, 37 degrees C., substrate NH3-[…]-CO2, MALDI-TOF; read-out: Cath D Ki
parameter: Ki

>>> result("CC[C@@H](Cn1nc(C)cc1C)C(=O)N[C@@H](CS(C)(=O)=O)C(=O)N[C@@H](CC(C)C)[C@@H](O)C[C@@H](C)C(=O)N[C@@H](C(=O)NCC(C)C)C(C)C [Structure 7]")
"< 100 nM"
>>> result("Cc1nc(COC(=O)N[C@@H](CS(C)(=O)=O)C(=O)N[C@H](CC(C)C)[C@@H](O)C[C@@H](C)C(=O)N[C@@H](C(=O)NCc2cccnc2)C(C)C)c(C)o1 [Structure 87]")
"100 to 1000 nM"
>>> result("Cc1nc(COC(=O)N[C@@H](CS(C)(=O)=O)C(=O)N[C@H](CC(C)C)[C@@H](O)C[C@@H](C)C(=O)N[C@@H](C(=O)NCC(C)C)C(C)C)c(C)o1 [Structure 94]")
"100 to 1000 nM"
>>> result("CCS(=O)(=O)C[C@H](NC(=O)OCc1nc(C)cs1)C(=O)N[C@H](CC(C)C)[C@@H](O)C[C@@H](C)C(=O)N[C@@H](C(=O)NCC(C)C)C(C)C [Structure 22]")
"100 to 1000 nM"
>>> result("Cc1csc(COC(=O)N[C@@H](CS(C)(=O)=O)C(=O)N[C@H](CC(C)C)[C@@H](O)C[C@@H](C)C(=O)N[C@@H](C(=O)NCc2ccncc2)C(C)C)n1 [Structure 45]")
"100 to 1000 nM"

====

Tested on: Aβ production
test description: Cellular Aβ IC50 determination (Aβ40 sandwich ELISA)
Type: cell-based
conditions used: Cricetulus griseus, Chinese hamster ovary cells over-expressing human APP695 with London and Swedish mutations, 24 h
parameter: IC50

>>> result("CC[C@@H](Cn1nc(C)cc1C)C(=O)N[C@@H](C[S+](C)[O-])C(=O)N[C@@H](CC(C)C)[C@@H](O)C[C@@H](C)C(=O)N[C@@H](C(=O)NCC(C)C)C(C)C (stereo partly drawn) [Structure 8]")
"< 6 µM"
>>> result("COCS(=O)(=O)C[C@H](NC(=O)OCc1nc(C)cs1)C(=O)N[C@H](CC(C)C)[C@@H](O)C[C@@H](C)C(=O)N[C@@H](C(=O)NCC(C)C)C1CCCCC1 [Structure 35]")
"> 100 µM"
>>> result("CC[C@H](C[C@H](O)[C@@H](CC(C)C)NC(=O)[C@H](CS(C)(=O)=O)NC(=O)OCc1nc(C)oc1C)C(=O)N[C@@H](C(=O)NCC(C)C)C(C)C [Structure 92]")
"< 6 µM"

====

Listed compounds paired with reported pKi
experimental system: memapsin 1 (Homo sapiens, UniProt Q9Y5Z0)
Sequence (Q9Y5Z0 63-518): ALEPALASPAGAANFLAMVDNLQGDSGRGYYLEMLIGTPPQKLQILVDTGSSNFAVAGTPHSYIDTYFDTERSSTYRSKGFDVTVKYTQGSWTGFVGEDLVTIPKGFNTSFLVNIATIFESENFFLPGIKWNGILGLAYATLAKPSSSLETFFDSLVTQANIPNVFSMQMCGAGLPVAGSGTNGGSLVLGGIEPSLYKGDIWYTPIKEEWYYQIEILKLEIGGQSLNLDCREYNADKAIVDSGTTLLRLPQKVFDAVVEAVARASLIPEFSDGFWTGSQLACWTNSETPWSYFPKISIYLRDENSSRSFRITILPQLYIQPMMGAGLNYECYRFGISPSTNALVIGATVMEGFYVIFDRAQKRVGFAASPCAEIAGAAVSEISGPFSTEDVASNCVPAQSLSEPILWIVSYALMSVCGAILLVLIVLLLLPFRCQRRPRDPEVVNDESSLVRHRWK
test description: Inhibition of memapsin 1 beta-secretase activity (substrate peptide […], MALDI-TOF)
Format: biochemical
conditions used: pH 4.1, 37 degrees C., substrate NH3-ELDLAVEFWHDR-CO2, MALDI-TOF; read-out: M1 Ki
pKi: −log10 of the molar value.
parameter: pKi

>>> result("Cc1csc(COC(=O)N[C@@H](CS(C)(=O)=O)C(=O)N[C@H](CC(C)C)[C@@H](O)C[C@@H](C)C(=O)N[C@@H](C(=O)NCC(C)C)c2ccccc2)n1")
"6.00 to 7.00"
>>> result("Cc1nc(COC(=O)N[C@@H](CS(C)(=O)=O)C(=O)N[C@H](CC(C)C)[C@@H](O)C[C@@H](C)C(=O)N[C@@H](C(=O)NCC(C)C)C(C)C)c(C)s1")
"> 7.00"
>>> result("CC(C)CNC(=O)[C@H](NC(=O)[C@H](C)C[C@H](O)[C@@H](CC(C)C)NC(=O)[C@H](CS(C)(=O)=O)NC(=O)OCc1ccn(C)n1)C(C)C")
"6.00 to 7.00"
>>> result("Cc1csc(COC(=O)N[C@@H](CS(=O)(=O)CC(C)C)C(=O)N[C@H](CC(C)C)[C@@H](O)C[C@@H](C)C(=O)N[C@@H](C(=O)NCC(C)C)C(C)C)n1")
"> 7.00"
>>> result("CSC[C@H](NC(=O)OCc1nc(C)oc1C)C(=O)N[C@@H](CC(C)C)[C@@H](O)C[C@@H](C)C(=O)N[C@H](C(=O)Nc1nccs1)C(C)C")
"6.00 to 7.00"
>>> result("CSC[C@H](NC(=O)[C@@H](C)Cc1nc(C)oc1C)C(=O)N[C@@H](CC(C)C)[C@@H](O)C[C@@H](C)C(=O)N[C@H](C(=O)NCC(C)C)C(C)C")
"6.00 to 7.00"
>>> result("CCC(CC)SC[C@H](NC(=O)OCc1nc(C)cs1)C(=O)N[C@H](CC(C)C)[C@@H](O)C[C@@H](C)C(=O)N[C@@H](C(=O)NCC(C)C)C(C)C")
"6.00 to 7.00"
>>> result("CSC[C@H](NC(=O)OCc1nc(C)oc1C)C(=O)N[C@H](Cc1ccccc1)[C@@H](O)C[C@@H](C)C(=O)N[C@@H](C(=O)NCC(C)C)C(C)C")
"> 7.00"
>>> result("Cc1nc(COC(=O)N[C@@H](CS(C)(=O)=O)C(=O)N[C@H](CC(C)C)[C@@H](O)C[C@@H](C)C(=O)N[C@@H](C(=O)O)C(C)C)c(C)o1")
"6.00 to 7.00"
>>> result("Cc1csc(COC(=O)N[C@@H](CS(C)(=O)=O)C(=O)N[C@H](CC(C)C)[C@@H](O)C[C@@H](C)C(=O)N[C@@H](C(=O)NCc2ccncc2)C(C)C)n1")
"< 6.00"
>>> result("COCCOCS(=O)(=O)C[C@H](NC(=O)OCc1nc(C)cs1)C(=O)N[C@H](CC(C)C)[C@@H](O)C[C@@H](C)C(=O)N[C@@H](C(=O)NCC(C)C)C(C)C")
"6.00 to 7.00"
>>> result("COCSC[C@H](NC(=O)CCn1nc(C)cc1C)C(=O)N[C@H](CC(C)C)[C@@H](O)C[C@@H](C)C(=O)N[C@@H](C(=O)NCC(C)C)C(C)C")
"> 7.00"
>>> result("CSC[C@H](NC(=O)OCc1nccn1C)C(=O)N[C@@H](CC(C)C)[C@@H](O)C[C@@H](C)C(=O)N[C@@H](C(=O)NCC(C)C)C(C)C")
"> 7.00"
>>> result("CC[C@H](C[C@H](O)[C@@H](CC(C)C)NC(=O)[C@H](CSC)NC(=O)OCc1nc(C)oc1C)C(=O)N[C@@H](C(=O)NCC(C)C)C(C)C")
"6.00 to 7.00"
>>> result("CSC[C@H](NC(=O)[C@@H](C)Cc1nc(C)cs1)C(=O)N[C@H](CC(C)C)[C@@H](O)C[C@@H](C)C(=O)N[C@@H](C(=O)NCC(C)C)C(C)C [Structure 64]")
"6.00 to 7.00"
>>> result("Cc1nc(CCC(=O)N[C@@H](CS(C)(=O)=O)C(=O)N[C@H](CC(C)C)[C@@H](O)C[C@@H](C)C(=O)N[C@@H](C(=O)NCC(C)C)C(C)C)c(C)o1")
"> 7.00"
>>> result("CC[C@@H](Cn1nc(C)cc1C)C(=O)N[C@@H](CS(C)(=O)=O)C(=O)N[C@@H](CC(C)C)[C@@H](O)C[C@@H](C)C(=O)N[C@@H](C(=O)NCC(C)C)C(C)C")
"> 7.00"
>>> result("Cc1nc(COC(=O)N[C@@H](CS(C)(=O)=O)C(=O)N[C@H](CC(C)C)[C@@H](O)C[C@@H](C)C(=O)N[C@@H](C(=O)NCC(C)C)C(C)C)no1")
"< 6.00"
>>> result("CSC[C@H](NC(=O)CCn1nc(C)cc1C)C(=O)N[C@H](CC(C)C)[C@@H](O)C[C@@H](C)C(=O)N[C@@H](C(=O)NCC(C)C)C(C)C")
"6.00 to 7.00"
>>> result("Cc1csc(CCC(=O)N[C@@H](CS(C)(=O)=O)C(=O)N[C@H](CC(C)C)[C@@H](O)C[C@@H](C)C(=O)N[C@@H](C(=O)NCC(C)C)C(C)C)n1")
"6.00 to 7.00"
>>> result("CCc1nc(COC(=O)N[C@@H](CSC)C(=O)N[C@H](CC(C)C)[C@@H](O)C[C@@H](C)C(=O)N[C@@H](C(=O)NCC(C)C)C(C)C)c(C)s1")
"> 7.00"
